Tested on: Staphylococcus aureus 209 P JC-1
Assay: Minimum inhibitory concentration (MIC) in vitro, antibacterial spectrum
Type: cell-based
Reported Metric: Minimum inhibitory concentration (MIC)
Respond numerically, and do not add a unit to the figure.

For the compound CO/N=C(\C(=O)N[C@@H]1C(=O)N2C(C(=O)O)=C(CSc3nc(=O)c(O)nn3C)CO[C@H]12)c1csc(N)n1 , what Minimum inhibitory concentration (MIC) is on record?
0.78

Then this compound: CCN1CCN(C(=O)NC(C(=O)N[C@@H]2C(=O)N3C(C(=O)O)=C(CSc4nc(=O)c(O)nn4C)CO[C@H]23)c2csc(N)n2)C(=O)C1=O (single isomer, unassigned)
0.78

Could you now look at the following compound, please?
For the compound CO[C@@]1(NC(=O)C(C(=O)O)c2ccc(O)cc2)C(=O)N2C(C(=O)O)=C(CSc3nnnn3C)CO[C@@H]21 (stereo partly drawn) [Latamoxef, reference compound] , what Minimum inhibitory concentration (MIC) is on record?
3.13
